# experiment notes: probe aNOTCH2 binding on compound microarray – biochemical, small-molecule microarray, 635/667 nm fluorescence, primary screen (AID 1121);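 further: score merges feature fluorescence read at 667 nm with its signal to noise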
# assay context: higher = more signal
I would appreciate it if you labelled entries condition met when composite z-score is -0.1 or higher, otherwise condition not met.

Does the compound NC(=O)NCC#Cc1ccc2c(c1)[C@]1(C(=O)N2)[C@H](c2ccc(OCCO)cc2)N2[C@H](c3ccccc3)[C@H](c3ccccc3)OC(=O)[C@H]2[C@@H]1C(=O)N1CCCCCCC1 have recorded composite z-score that is -0.1 or more?
condition met

Does the compound C=CCNC(=O)[C@H]1[C@@H]2C(=O)O[C@@H](c3ccccc3)[C@@H](c3ccccc3)N2[C@@H](c2ccc(OCCO)cc2)[C@]12C(=O)N(C(=O)OCCOC)c1ccc(C#CC3=CCCCC3)cc12 have recorded composite z-score that is -0.1 or more?
condition not met

Does the compound CC(C)(C)N1CC=CC23O[C@@H]4C=CCCOC(=O)C4[C@H]2C(=O)N(CCCO)[C@@H]3C1=O (stereo partly specified) have recorded composite z-score that is -0.1 or more?
condition not met

Does the compound C[N+](C)(C)CCCCCCNC(=O)[C@@H]1C[C@@H]2C(=O)NCC(=O)N2[C@@H]1c1cccc(OCCO)c1 have recorded composite z-score that is -0.1 or more?
condition not met

Does the compound COCCOC(=O)N1C(=O)[C@@]2(c3ccccc31)[C@H](c1ccc(OCCO)cc1)N1[C@H](c3ccccc3)[C@H](c3ccccc3)OC(=O)[C@H]1[C@@H]2C(=O)NC[C@H](O)c1ccccc1 have recorded composite z-score that is -0.1 or more?
condition met

Does the compound COc1ccccc1CN1C(=O)c2ccccc2[C@](Cc2ccccc2I)(C(=O)NCCN2CCOCC2)[C@@H]1c1ccc(CO)cc1 have recorded composite z-score that is -0.1 or more?
condition met

====

# experiment notes: S. pombe growth modifiers, basal conditions – strain 972, OD600, 24 h, no modulator, primary screen (AID 1090);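 further: basal condition with compound alone and no growth modifier present; test concentration not given here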
# assay context: S. pombe 972 growth, called active from +8 up or from −8 down
Calls of active or inactive are those of the source.
Can you answer with just one of these options? active, inactive

Answer briefly: the call reported for COc1ccccc1CN1C(=O)c2ccccc2[C@](Cc2ccccc2I)(C(=O)NCCN2CCOCC2)[C@@H]1c1ccc(CO)cc1 in this assay.
inactive

Answer briefly: the call reported for CC(C)NC(=O)[C@@]1(Cc2ccccc2I)c2ccccc2C(=O)N(Cc2ccccc2C(F)(F)F)[C@H]1c1ccc(CO)cc1 in this assay.
inactive

Answer briefly: the call reported for COC(=O)[C@@]1(Cc2ccc(F)cc2)[C@H]2c3cc(C(=O)N(C)C)n(Cc4ccc(C)c(F)c4F)c3C[C@H]2CN1C(=O)c1ccccc1 in this assay.
inactive

Answer briefly: the call reported for CCCN1C(=O)[C@@H]2Cc3c([nH]c4ccccc34)[C@@H](c3cccc(O)c3)N2C1=O in this assay.
inactive

Answer briefly: the call reported for CN(C)C(=O)[C@@]1(CCC(=O)OC(C)(C)C)COC(c2ccc(OCCCO)cc2)=N1 in this assay.
inactive

Answer briefly: the call reported for COC(=O)[C@@]1(Cc2ccc(OC)cc2)[C@H]2c3cc(C(=O)N4CCCC4)n(CCc4ccc(O)c(OC)c4)c3C[C@H]2CN1C(=O)c1ccccc1 in this assay.
inactive

Answer briefly: the call reported for O=C(O)[C@]1(CCS(=O)(=O)c2ccccc2)N=C(c2ccc(OCCCO)cc2)O[C@@H]1c1ccccc1 in this assay.
inactive

Answer briefly: the call reported for C=CCOC(=O)[C@@H]1[C@H]2C(=O)O[C@H](c3ccccc3)[C@H](c3ccccc3)N2[C@H](c2ccc(OCCOC(=O)[C@H]3C[C@H]4C(=O)N[C@@H](Cc5ccccc5)C(=O)N4[C@H]3c3cccc(OCCO)c3)cc2)[C@@]12C(=O)Nc1ccc(I)cc12 in this assay.
inactive

Answer briefly: the call reported for C=C(COC)/C(=C/C[C@@H](OC(=O)c1ccncc1)c1cccc(OCCO)c1)c1cc(C(=O)OC)ccc1OC in this assay.
active

Answer briefly: the call reported for CC(C)C[C@@H]1NC(=O)[C@@]23C(=O)N[C@@H](Cc4ccccc4)C2[C@H](C)[C@@]2(C)O[C@H]2C3/C=C/C/C=C\CNC(=O)[C@@H]2CCCN2C1=O (stereo not given in full) in this assay.
inactive

Answer briefly: the call reported for O=C1C[C@@](C(=O)NCc2ccccc2)(c2ccc([N+](=O)[O-])cc2)[C@@H](c2ccc(CO)cc2I)N1C1CCCCC1 in this assay.
inactive

Answer briefly: the call reported for CN(C)C(=O)[C@@]1(CCC(=O)OC(C)(C)C)N=C(c2ccc(OCCCO)cc2)O[C@H]1c1ccccc1N=[N+]=[N-] in this assay.
inactive

Answer briefly: the call reported for CC(C)(C)OC(=O)CC[C@@]1(C(=O)N2CCCCC2)N=C(c2ccc(OCCCO)cc2)O[C@@H]1c1ccccc1CN=[N+]=[N-] in this assay.
inactive

Answer briefly: the call reported for CCCc1cc2c(n1Cc1ccc(OC)cc1)C(C)C1CN(C(=O)c3ccccc3)C(C)(C(=O)OC)C21 (stereo not given) in this assay.
inactive

Answer briefly: the call reported for CC(C)C(CO)N1C(=O)[C@@H]2[C@H]3C(=O)OCC=C[C@H]3OC23C=CCN(CCN2CCOCC2)C(=O)[C@@H]13 (stereo not given in full) in this assay.
inactive

====

# experiment notes: probe aDKK1 binding to arrayed compounds – biochemical, biotinylated probe, 635/667 nm fluorescence, primary screen (AID 1099);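 further: score merges 667nm spot fluorescence with signal to noise across triplicate slides; reference of the scale not given here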
# assay context: small-molecule microarray, higher = more signal
I would appreciate it if you labelled entries true (1) when composite z-score is 0.8 or higher, otherwise false (0).

Does the compound Cc1ccc(-c2cccc(=O)o2)cc1 have recorded composite z-score that is 0.8 or more?
false (0)

Does the compound CC(C)C[C@H]1NC(=O)[C@H](C)NC(=O)[C@@]23C(=O)N[C@@H](Cc4ccccc4)C2[C@H](C)[C@@]2(C)O[C@H]2C3/C=C/C/C=C\CNC1=O (some centres not stated) have recorded composite z-score that is 0.8 or more?
false (0)

Does the compound COCCOC(=O)N1C(=O)[C@@]2(c3cc(C#CC4(O)CCCCCC4)ccc31)[C@H](C(=O)N1CCN(c3ncccn3)CC1)[C@H]1C(=O)O[C@H](c3ccccc3)[C@H](c3ccccc3)N1[C@@H]2c1ccc(O)cc1 have recorded composite z-score that is 0.8 or more?
false (0)

Does the compound COc1cc(C(O)C2C=CC3C(=O)NC(=O)C3N2Nc2ccc(Cl)cc2Cl)cc(OC)c1OC (configuration not stated) have recorded composite z-score that is 0.8 or more?
true (1)

Does the compound COCCCNC(=O)[C@@H]1c2ccccc2C(=O)N(Cc2cc(F)cc(C(F)(F)F)c2)[C@H]1c1ccc(CO)cc1 have recorded composite z-score that is 0.8 or more?
false (0)

====

Provide the reported composite z-score of each item.
# Test system: Neuregulin-1 EGF-like domain
# experiment notes: small molecules binding NRG1 EGF domain – biochemical, small-molecule microarray, 635 nm fluorescence, primary screen (AID 1081);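 further: binding of the protein to compounds printed on small-molecule microarray slides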
# assay context: higher = more signal

Give the reported value of composite z-score for this record: [N-]=[N+]=Nc1ccccc1C[C@]1(C(=O)NCCN2CCOCC2)N=C(c2ccc(OCCCO)cc2)O[C@H]1c1ccccc1N=[N+]=[N-]
1.33

Give the reported value of composite z-score for this record: O=c1c2ccc(Br)cc2nc(-c2ccccc2)n1Cc1cccc(O)c1
1.12

Give the reported value of composite z-score for this record: O=C1O[C@H](c2ccccc2)[C@H](c2ccccc2)N2[C@H]1[C@@H](C(=O)N1CCCCCCC1)[C@]1(C(=O)Nc3ccccc31)[C@H]2c1ccc(O)cc1
1.37

Give the reported value of composite z-score for this record: CC(C)[Si](C#C[Si](C(C)C)(C(C)C)C(C)C)(O[C@H](C)c1cn(Cc2cccc(Cl)c2)nn1)C(C)C
0.94

====

# system tested: NADPH oxidase 5 (Homo sapiens)
# experiment notes: compounds shifting NOX5 Amplex Red fluorescence – cell-based, HEK293-NOX5, NOX inhibitor project, primary screen (AID 1161)
# assay context: HEK293-NOX5, ionomycin, 45 min, higher = more signal
measured attribute: z-score
Lab note: record the figure alone, no unit after it.

Give the reported value of z-score for this record: O=C1C[C@@](C(=O)O)(c2ccc([N+](=O)[O-])cc2)[C@@H](c2ccc(CO)cc2)N1CC12CC3CC(CC(C3)C1)C2
-1.01

Give the reported value of z-score for this record: CCCc1cc2c(n1Cc1ccc(OC)cc1)C(C)C1CN(C(=O)c3ccccc3)C(C)(C(=O)OC)C21 (centres undefined)
-3.28

Give the reported value of z-score for this record: COc1ccc([Si](C)(C)[C@@H]2[C@@H](CC(=O)N(CCO)Cc3ccccc3)O[C@]3(C(=O)N(Cc4ccc(N5CCOC5=O)cc4)c4ccccc43)[C@H]2C)cc1
3.4

Give the reported value of z-score for this record: O=C(Nc1cc(Br)ccc1C(=O)NCc1cccc(O)c1)c1ccccc1
-1.3

Give the reported value of z-score for this record: COCC(=C=CC[C@@H](O)c1ccccc1OCCO)C[C@@H](O)c1ccccn1
-1.31

Give the reported value of z-score for this record: CC(C)(C)OC(=O)CC[C@@]1(C(=O)N2CCCCC2)N=C(c2ccc(OCCCO)cc2)O[C@@H]1c1ccccc1N=[N+]=[N-]
-1.47

Give the reported value of z-score for this record: COC(=O)C(CC#Cc1ccc2c(c1)[C@]1(C(=O)N2)[C@H](C(=O)N2CCc3cc(OC)c(OC)cc3C2)[C@H]2C(=O)O[C@H](c3ccccc3)[C@H](c3ccccc3)N2[C@@H]1c1ccc(O)cc1)C(=O)OC
0.121

Give the reported value of z-score for this record: CC(C)(C)OC(=O)CC[C@@]1(C(=O)N2CCCCC2)N=C(c2ccc(OCCCO)cc2)O[C@@H]1c1ccccc1CN=[N+]=[N-]
1.22

Give the reported value of z-score for this record: COc1ccc([Si](C)(C)[C@H]2[C@H](CC(=O)N3CCC[C@H]3CO)O[C@@]3(C(=O)N(Cc4ccc(N5C(=O)c6cccc7cccc5c67)cc4)c4ccccc43)[C@@H]2C)cc1
2.62

Give the reported value of z-score for this record: COc1ccc(C#Cc2ccc3c(c2)[C@]2(C(=O)N3)[C@H](C(N)=O)[C@H]3C(=O)O[C@H](c4ccccc4)[C@H](c4ccccc4)N3[C@@H]2c2ccc(O)cc2)cc1
-1.04

Give the reported value of z-score for this record: CC(C)CNC(=O)[C@@]1(c2ccc([N+](=O)[O-])cc2)CC(=O)N(C(C)C)[C@@H]1c1ccc(CO)cc1
-1.44

Give the reported value of z-score for this record: C=C(/C(=C/C[C@@H](OC(C)=O)c1ccccc1OCCO)c1cnc2ccccc2c1)C(C)C
-1.49

Give the reported value of z-score for this record: CO[C@H]1O[C@H](CO)[C@@H](OC(=O)Nc2ccc(C(F)(F)F)cc2)[C@H](OC(=O)Nc2ccccc2)[C@H]1OC(=O)Nc1ccccc1
-1.85

Give the reported value of z-score for this record: CCN(CC)c1ccc(N2CC=CC34O[C@@H]5/C=C\CCCOC(=O)C5[C@H]3C(=O)N(CCCCCCO)[C@@H]4C2=O)cc1 (some centres undefined)
1.36

Give the reported value of z-score for this record: Cc1ccc(S[C@]2(C(=O)O)CC(=O)N(C3CCCCC3)[C@@H]2c2ccc(CO)cc2)cc1
0.763

Give the reported value of z-score for this record: CN1C(=O)C2C=CC(C(O)c3cccc4ccccc34)N(NC(=O)OC(C)(C)C)C2C1=O (centres undefined)
0.409

Give the reported value of z-score for this record: CCCCCCC#C[Si](O[C@H](c1ccccc1)c1cn(Cc2cccc(Cl)c2)nn1)(C(C)C)C(C)C
-0.576

Give the reported value of z-score for this record: CC(C)CCC[C@@H](C)[C@H]1CC[C@@]2(C)C3=C(CC[C@]12C)[C@@]1(C)CC[C@H](OC(=O)C(C)(C)C)C(C)(C)C1CC3 (some centres undefined)
1.29

Give the reported value of z-score for this record: O=C1O[C@H](c2ccccc2)[C@H](c2ccccc2)N2[C@H]1[C@@H](C(=O)N1CCCCCCC1)[C@]1(C(=O)Nc3ccc(C#CCCO)cc31)[C@H]2c1ccc(OCCO)cc1
1.25

Give the reported value of z-score for this record: Cc1ccc(F)cc1S(=O)(=O)N[C@@H]1CCN(C(=O)c2ccc(OC(C)C)cc2)C1
-0.257

Give the reported value of z-score for this record: Cc1ccc(S[C@]2(C(=O)NCc3ccccc3)CC(=O)N(C3Cc4ccccc4C3)[C@@H]2c2ccc(CO)cc2I)cc1
1.42

Give the reported value of z-score for this record: COC(=O)c1ccc(OC)c(/C=C\CC(CCc2ccccc2)OC(C)=O)c1 (centres undefined)
-0.983

Give the reported value of z-score for this record: CN1C(=O)C2C=CC(C(O)c3ccc(F)cc3)N(N3CCCCC3)C2C1=O (centres undefined)
-1.35

Give the reported value of z-score for this record: C=CCN1C(=O)[C@@]2(O[C@@H](CCO)[C@H]([Si](C)(C)c3ccc(OC)cc3)[C@H]2C)c2cc(NC(=O)[C@H](C)O)ccc21
-0.335

Give the reported value of z-score for this record: NC(=O)[C@@H]1[C@H]2C(=O)O[C@H](c3ccccc3)[C@H](c3ccccc3)N2[C@H](c2ccccc2OCCO)[C@@]12C(=O)Nc1ccc(C#CCCO)cc12
1.02

Give the reported value of z-score for this record: O=C1C2C=CC(C(O)c3ccc(Br)cc3)N(Nc3ccccc3)C2C(=O)N1c1ccccc1 (centres undefined)
-2.39

Give the reported value of z-score for this record: COc1ccccc1CN1C(=O)c2ccccc2[C@@]2(Cc3ccccc3N(C3CC3)C2=O)[C@@H]1c1ccc(CO)cc1
1.04

Give the reported value of z-score for this record: O=C1N(CCS(=O)(=O)c2ccccc2)Cc2ccccc2C[C@@]12COC(c1ccc(OCCCO)cc1)=N2
-3.16

Give the reported value of z-score for this record: C=C[C@H](C)[C@H](OC(=O)Nc1ccc(SC)cc1)c1ccc(O)c2ccccc12
1.76
